Where do the numbers come from? From patent US8394796B2.

Target: p110δ/p85α (PI3K p110 delta) (Homo sapiens, UniProt O00329)
Construct: purchased Upstate Group, Millipore; Dundee, UK
Sequence (O00329 whole entry): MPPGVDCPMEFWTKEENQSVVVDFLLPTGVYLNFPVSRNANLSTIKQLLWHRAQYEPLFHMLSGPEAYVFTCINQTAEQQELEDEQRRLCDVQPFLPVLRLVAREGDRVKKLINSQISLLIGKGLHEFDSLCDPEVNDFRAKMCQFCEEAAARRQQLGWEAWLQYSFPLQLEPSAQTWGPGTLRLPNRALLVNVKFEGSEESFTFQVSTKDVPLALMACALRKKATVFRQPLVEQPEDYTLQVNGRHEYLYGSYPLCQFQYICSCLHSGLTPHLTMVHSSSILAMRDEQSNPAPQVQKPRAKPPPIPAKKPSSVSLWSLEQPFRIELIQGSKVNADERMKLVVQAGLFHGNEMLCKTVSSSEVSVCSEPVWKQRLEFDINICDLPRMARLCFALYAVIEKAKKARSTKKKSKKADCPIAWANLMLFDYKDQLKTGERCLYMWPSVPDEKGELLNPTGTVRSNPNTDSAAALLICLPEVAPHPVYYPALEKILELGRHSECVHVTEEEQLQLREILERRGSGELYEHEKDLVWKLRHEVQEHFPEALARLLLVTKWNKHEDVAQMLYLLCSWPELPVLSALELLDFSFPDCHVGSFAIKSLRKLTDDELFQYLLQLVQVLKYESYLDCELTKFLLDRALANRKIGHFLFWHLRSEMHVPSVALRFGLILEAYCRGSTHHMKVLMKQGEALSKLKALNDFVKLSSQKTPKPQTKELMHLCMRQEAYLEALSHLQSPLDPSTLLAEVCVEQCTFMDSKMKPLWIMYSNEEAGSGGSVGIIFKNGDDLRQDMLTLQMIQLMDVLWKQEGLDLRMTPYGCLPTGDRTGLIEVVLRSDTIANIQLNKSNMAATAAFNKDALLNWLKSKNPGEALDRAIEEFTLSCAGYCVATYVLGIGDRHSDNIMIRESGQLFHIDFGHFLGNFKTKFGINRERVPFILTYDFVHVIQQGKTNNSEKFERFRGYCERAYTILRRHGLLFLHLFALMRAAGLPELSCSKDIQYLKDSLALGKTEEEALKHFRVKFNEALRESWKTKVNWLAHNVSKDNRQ
Sequence (P27986 whole entry partner): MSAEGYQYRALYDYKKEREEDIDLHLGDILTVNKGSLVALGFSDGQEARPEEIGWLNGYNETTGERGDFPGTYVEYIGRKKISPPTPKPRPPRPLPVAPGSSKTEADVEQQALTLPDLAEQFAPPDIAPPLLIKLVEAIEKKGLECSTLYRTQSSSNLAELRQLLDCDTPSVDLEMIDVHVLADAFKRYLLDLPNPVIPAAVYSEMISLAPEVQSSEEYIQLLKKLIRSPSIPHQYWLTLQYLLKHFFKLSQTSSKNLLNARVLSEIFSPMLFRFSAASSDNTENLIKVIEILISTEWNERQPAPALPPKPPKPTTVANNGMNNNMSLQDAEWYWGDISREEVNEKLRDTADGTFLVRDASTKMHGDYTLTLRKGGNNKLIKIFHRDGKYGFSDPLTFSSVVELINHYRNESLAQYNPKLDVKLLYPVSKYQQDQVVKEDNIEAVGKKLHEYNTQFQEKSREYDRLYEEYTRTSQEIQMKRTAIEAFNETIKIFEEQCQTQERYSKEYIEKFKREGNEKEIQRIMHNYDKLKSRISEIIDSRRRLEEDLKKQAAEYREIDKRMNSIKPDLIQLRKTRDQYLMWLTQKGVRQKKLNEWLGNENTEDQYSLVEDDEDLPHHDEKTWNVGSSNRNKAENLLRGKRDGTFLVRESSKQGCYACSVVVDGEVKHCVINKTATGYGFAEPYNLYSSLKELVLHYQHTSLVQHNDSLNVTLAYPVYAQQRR
Test: PI3K isoform inhibition assay (fluorescence polarization PIP3 displacement; alternatively radiometric), p110 delta
Type: biochemical
Settings: delta/alpha selectivity: ratio of p110 alpha IC50 to p110 delta IC50
measurement.label: IC50 p110 alpha/IC50 p110 delta

smiles.input	IC50 p110 alpha/IC50 p110 delta
CCc1nc2ccccc2n1-c1nc(N2CCOCC2)c2nc(CC(=O)N3CCC(C(C)(C)O)CC3)sc2n1	14
CCc1nc2ccccc2n1-c1nc(N2CCOCC2)c2nc(CCN3CCOCC3(C)C)n(C)c2n1	49
c1cc(-c2nc(N3CCOCC3)c3sc(CN4CCC(N5CCOCC5)CC4)cc3n2)c2ccncc2c1	53
COC(C)(C)C1CCN(Cc2nc3c(N4CCOCC4)nc(-c4c(C)oc5ccccc45)nc3n2C)CC1	54

(1) Cc1nc2ccccc2n1-c1nc(N2CCOCC2)c2oc(CN3CCN(C(C)(C)C(N)=O)CC3)cc2n1
(2) CC(C)c1nc2ccccc2n1-c1nc(N2CCOCC2)c2nc(-c3cccnc3)n(C)c2n1
Task: Which one would you say has the larger IC50 p110 alpha/IC50 p110 delta value: 1 , or 2 ? Indicate your choice by writing its label.
Output: 1
(1: 64, 2: 14)

---

Target: p110δ/p85α (PI3K p110 delta) (Homo sapiens, UniProt O00329)
Construct: purchased Upstate Group, Millipore; Dundee, UK
Assay: PI3K isoform inhibition assay (fluorescence polarization PIP3 displacement; alternatively radiometric), p110 delta
Assay type: biochemical
Conditions: delta/alpha selectivity: ratio of p110 alpha IC50 to p110 delta IC50
measurement.label: IC50 p110 alpha/IC50 p110 delta

(A) CC(C)(C(N)=O)N1CCN(Cc2nc3nc(-c4cccc5nccn45)nc(N4CCOCC4)c3s2)CC1
(B) CCc1nc2ccccc2n1-c1nc(N2CCOCC2)c2nc(CN3C[C@@H]4C[C@H]3CN4C(C)(C)CO)n(C)c2n1
Task: Which one would you say has the larger IC50 p110 alpha/IC50 p110 delta value: A , or B ? Indicate your choice by writing its label.
Output: B

(A) CCc1nc2ccccc2n1-c1nc(N2CCOCC2)c2nc(CC3CN(C4CCS(=O)(=O)CC4)C3)n(C)c2n1
(B) CCc1nc2ccccc2n1-c1nc(N2CCOCC2)c2nc(CN3CCC(C(C)(C)O)CC3)[nH]c2n1
Task: Could you determine which record has the numerically smaller IC50 p110 alpha/IC50 p110 delta? Candidates: A and B Indicate your choice by writing its label.
Output: B
(B: 50, A: 140)

---

Molecular target: p110δ/p85α (PI3K p110 delta) (Homo sapiens)
Construct: Dundee, UK
Experiment: PI3K isoform inhibition assay (fluorescence polarization PIP3 displacement; alternatively radiometric), p110 delta
Settings: PI3K p110 delta binding IC50
measurement.label: IC50 (nM)

Take a look at these entries with their results.
compound	test.value
COc1cccc(-c2nc3c(N4CCOCC4)nc(-n4c(C(C)C)nc5ccccc54)nc3n2C)c1 [Example 683]	31.7
c1cc(-c2nc(N3CCOCC3)c3sc(CN4CCC(N5CCOCC5)CC4)cc3n2)c2ccncc2c1 [Example 101]	101
Cn1c(CN2CCC(C(C)(C)O)CC2)nc2c(N3CCOCC3)nc(-c3cnc(N)c4ccccc34)nc21 [Example 115]	7.2
CN(C)C1CCN(Cc2cc3nc(-n4ccc5cnccc54)nc(N4CCOCC4)c3s2)CC1 [Example 149]	6.9
Cn1c(CN2CCC(C(C)(C)O)CC2)nc2c(N3CCOCC3)nc(-c3n[nH]c4ccccc34)nc21 [Example 162]	14.6

(P) CCc1nc2ccccc2n1-c1nc(N2CCOCC2)c2nc(CCN3CCOCC3(C)C)n(C)c2n1 [Example 535]
(Q) CC(C)c1nc2ccccc2n1-c1nc(N2CCOCC2)c2nc(CN3CCN(C(C)(C)CO)CC3)[nH]c2n1 [Example 490]
Task: Could you determine which record has the numerically smaller IC50? Candidates: P and Q Indicate your choice by writing its label.
Output: Q
